Test: Acute toxicity in mice
Conditions: mouse, in vivo; intravenous administration, male ddY-strain mice; hydrochloric acid salt
Method: The acute toxicity of the N-(2-guanidinoethyl)-5-isoquinolinesulfonamide dihydrochloride was measured by giving male ddY-strain mouse and rat an intravenous administration and an oral administration. The acute toxicity of the hydrochloric acid salt of other compounds was measured by giving male ddY-strain mice an intravenous administration.
property: LD50

molecule=N=C(N)N1CCN(S(=O)(=O)c2cccc3cnccc23)CC1 property=LD50 meas_value="12 mg/kg"
molecule="CC(CCCCC(C)NS(=O)(=O)c1cccc2cnccc12)NC(=N)N (stereo not drawn)" property=LD50 meas_value="66 mg/kg"
molecule="N=C(N)NCC(CNS(=O)(=O)c1cccc2cnccc12)c1ccccc1 (stereo not drawn)" property=LD50 meas_value="80 mg/kg"

---

Test system: mesenteric artery
Assay: Relaxation of rabbit mesenteric artery contracted with KCl (isolated helical strip)
Format: cell-based
Conditions: Oryctolagus cuniculus; concentration for 50% relaxation (complete relaxation = 100%); KCl 15-20 mM contraction; read-out: Relaxation of Mesenteric Artery ED50
Documented EC50 across a set of compounds
property: EC50 (µM)

compound="N=C(N)NCC(NS(=O)(=O)c1cccc2cnccc12)c1ccccc1 (stereo not drawn)" measurement_units=µM meas_value=8
compound="CC(CCCCC(C)NS(=O)(=O)c1cccc2cnccc12)NC(=N)N (stereo not drawn)" measurement_units=µM meas_value=5
compound=N=C(N)NCCCCCNS(=O)(=O)c1cccc2cnccc12 measurement_units=µM meas_value=3
compound=O=S(=O)(NCCNC1=NCCN1)c1cccc2cnccc12 measurement_units=µM meas_value=20
compound="N=C(N)NCC(Cc1ccccc1)NS(=O)(=O)c1cccc2cnccc12 (stereo not drawn)" measurement_units=µM meas_value=10
compound="N=C(N)NCC(CNS(=O)(=O)c1cccc2cnccc12)Cc1ccccc1 (stereo not drawn)" measurement_units=µM meas_value=2

---

System: mesenteric artery
Experiment: Relaxation of rabbit mesenteric artery contracted with KCl (isolated helical strip)
Type: cell-based
Conditions: Oryctolagus cuniculus; concentration for 50% relaxation (complete relaxation = 100%); KCl 15-20 mM contraction; read-out: Relaxation of Mesenteric Artery ED50
pEC50: −log10 of the molar value.
Use satisfied when the recorded pEC50 is no lower than 5; use not satisfied when it is lower.

compound="N=C(N)N1CCCN(S(=O)(=O)c2cccc3cnccc23)CC1 [Compound 45]" label_value=satisfied
compound="CC1CN(S(=O)(=O)c2cccc3cnccc23)C(C)CN1C(=N)N (stereo not drawn) [Compound 49]" label_value=satisfied
compound="N=C(N)NCCNS(=O)(=O)c1cccc2cnccc12 [Compound 2]" label_value=satisfied
compound="N=C(N)NC(CCNS(=O)(=O)c1cccc2cnccc12)Cc1ccccc1 (stereo not drawn) [Compound 35]" label_value=satisfied
compound="N=C(N)NCCCCCCCCCCNS(=O)(=O)c1cccc2cnccc12 [Compound 8]" label_value="not satisfied"

---

Experiment: Acute toxicity in rats
Details: in vivo; intravenous administration, male rat; dihydrochloride
property: LD50 (mg/kg)

compound=Cl.Cl.N=C(N)NCCNS(=O)(=O)c1cccc2cnccc12 meas_value=64

---

Assay: Acute toxicity in rats
Settings: in vivo; oral administration, male rat; dihydrochloride
property: LD50 (mg/kg)

compound=Cl.Cl.N=C(N)NCCNS(=O)(=O)c1cccc2cnccc12 meas_value=1160

---

Test system: femoral artery
Assay: Effect on blood flow volume in femoral artery of anesthetized dogs
Format: in vivo, dog of mixed breed
Conditions: intravenous, 1 mg/Kg (mm/Kg [sic])
property: Increased Blood Flow Volume in Femoral Artery (%)

molecule=N=C(N)NCCNS(=O)(=O)c1cccc2cnccc12 measured_on="femoral artery" meas_value=37
molecule="N=C(N)NCC(CNS(=O)(=O)c1cccc2cnccc12)c1ccccc1 (stereo not shown)" measured_on="femoral artery" meas_value=30
molecule="CC(CCCCC(C)NS(=O)(=O)c1cccc2cnccc12)NC(=N)N (stereo not shown)" measured_on="femoral artery" meas_value=32
molecule=O=S(=O)(NCCNC1=NCCN1)c1cccc2cnccc12 measured_on="femoral artery" meas_value=19

---

Test: Acute toxicity in mice
Conditions: in vivo; intravenous administration, male mouse; dihydrochloride
property: LD50 (mg/kg)

compound=Cl.Cl.N=C(N)NCCNS(=O)(=O)c1cccc2cnccc12 property=LD50 meas_value=59

---

Test system: vertebral artery
Assay: Effect on blood flow volume in vertebral artery of anesthetized dogs
Assay type: in vivo, dog of mixed breed
Details: intravenous, 1 mg/Kg (mm/Kg [sic])
property: Increased Blood Flow Volume in Vertebral Artery (%)

molecule="CC(CCCCC(C)NS(=O)(=O)c1cccc2cnccc12)NC(=N)N (stereo not shown)" measurement_units=% meas_value=68
molecule="N=C(N)NCC(CNS(=O)(=O)c1cccc2cnccc12)c1ccccc1 (stereo not shown)" measurement_units=% meas_value=75
molecule=N=C(N)NCCNS(=O)(=O)c1cccc2cnccc12 measurement_units=% meas_value=95
molecule=O=S(=O)(NCCNC1=NCCN1)c1cccc2cnccc12 measurement_units=% meas_value=65

---

Test system: mesenteric artery
Test: Relaxation of rabbit mesenteric artery contracted with KCl (isolated helical strip)
Assay type: cell-based
Conditions: Oryctolagus cuniculus; concentration for 50% relaxation (complete relaxation = 100%); KCl 15-20 mM contraction; read-out: Relaxation of Mesenteric Artery ED50
property: EC50 (µM)

compound="N=C(N)NCC(CCNS(=O)(=O)c1cccc2cnccc12)c1ccccc1 (centres unmarked) [Compound 37]" meas_value=10
compound="CCCCC(CNC(=N)N)NS(=O)(=O)c1cccc2cnccc12 (centres unmarked) [Compound 13]" meas_value=13
compound="N=C(N)NCCCCCCNS(=O)(=O)c1cccc2cnccc12 [Compound 6]" meas_value=4
compound="CCC(CNC(=N)N)NS(=O)(=O)c1cccc2cnccc12 (centres unmarked) [Compound 10]" meas_value=5
compound="CC(CNC(=N)N)NS(=O)(=O)c1cccc2cnccc12 (centres unmarked) [Compound 9]" meas_value=3
compound="N=C(N)NC(CNS(=O)(=O)c1cccc2cnccc12)c1ccccc1 (centres unmarked) [Compound 25]" meas_value=10
compound="CCN=C(N)NCCNS(=O)(=O)c1cccc2cnccc12 [Compound 55]" meas_value=5
compound="CCN=C(NCC)NCCNS(=O)(=O)c1cccc2cnccc12 [Compound 54]" meas_value=12
compound="N=C(N)N1CCN(S(=O)(=O)c2cccc3cnccc23)CC1 [Compound 44]" meas_value=0.6
compound="N=C(N)NCCCNS(=O)(=O)c1cccc2cnccc12 [Compound 3]" meas_value=2
compound="CC(CCNS(=O)(=O)c1cccc2cnccc12)CNC(=N)N (centres unmarked) [Compound 36]" meas_value=5
compound="N=C(N)NCCCCNS(=O)(=O)c1cccc2cnccc12 [Compound 4]" meas_value=2
compound="CC(CNC(=N)N)CNS(=O)(=O)c1cccc2cnccc12 (centres unmarked) [Compound 28]" meas_value=3
compound="CNC(=N)NCCNS(=O)(=O)c1cccc2cnccc12 [Compound 52]" meas_value=7
compound="N=C(N)NCCCC(CNS(=O)(=O)c1cccc2cnccc12)Cc1ccccc1 (centres unmarked) [Compound 39]" meas_value=13
compound="CN=C(NC)NCCNS(=O)(=O)c1cccc2cnccc12 [Compound 53]" meas_value=10
compound="N=C(N)NCC(CNS(=O)(=O)c1cccc2cnccc12)c1ccccc1 (centres unmarked) [Compound 31]" meas_value=2
compound="CC(C)C(CNS(=O)(=O)c1cccc2cnccc12)NC(=N)N (centres unmarked) [Compound 19]" meas_value=15
compound="CC(CNS(=O)(=O)c1cccc2cnccc12)NC(=N)N (centres unmarked) [Compound 16]" meas_value=3
compound="O=S(=O)(NCCNC1=NCCCN1)c1cccc2cnccc12 [Compound 51]" meas_value=25

---

Assay: Hypotensive action (change of blood pressure) in anesthetized dogs
Format: in vivo, dog of mixed breed
Conditions: intravenous, 1 (mm/Kg [sic])
property: Average Decreased Blood Pressure (mmHg)

compound="O=S(=O)(NCCNC1=NCCN1)c1cccc2cnccc12 [Compound 50]" property="Average Decreased Blood Pressure" meas_value=10
compound="N=C(N)NCC(CNS(=O)(=O)c1cccc2cnccc12)c1ccccc1 (stereo not shown) [Compound 31]" property="Average Decreased Blood Pressure" meas_value=15
compound="N=C(N)NCCNS(=O)(=O)c1cccc2cnccc12 [Compound 2]" property="Average Decreased Blood Pressure" meas_value=32
compound="CC(CCCCC(C)NS(=O)(=O)c1cccc2cnccc12)NC(=N)N (stereo not shown) [Compound 43]" property="Average Decreased Blood Pressure" meas_value=15

---

Test system: mesenteric artery
Assay: Relaxation of rabbit mesenteric artery contracted with KCl (isolated helical strip)
Assay type: cell-based
Conditions: Oryctolagus cuniculus; concentration for 50% relaxation (complete relaxation = 100%); KCl 15-20 mM contraction; read-out: Relaxation of Mesenteric Artery ED50
pEC50: −log10 of the molar value.
Documented pEC50 across a set of compounds
property: pEC50

compound=N=C(N)NCCCCCCCCNS(=O)(=O)c1cccc2cnccc12 property=pEC50 meas_value=5.00
compound="N=C(N)NCC(CCCNS(=O)(=O)c1cccc2cnccc12)Cc1ccccc1 (stereo not shown)" property=pEC50 meas_value=4.96
compound="CCC(CNS(=O)(=O)c1cccc2cnccc12)NC(=N)N (stereo not shown)" property=pEC50 meas_value=5.00
compound="CC(NC(=N)N)C(C)NS(=O)(=O)c1cccc2cnccc12 (stereo not shown)" property=pEC50 meas_value=5.10

// data source = patent US4709032A
